Entry source: PubChem BioAssay AID1963977

- Test system: 624824-186-R-J3-PDC multicell spheroids, viability
- ASSAY SUMMARY: Anticancer human tumor 624824-186-R-J3-PDC patient-derived colon adenocarcinoma cell line growth inhibition [PI3K]
- RUN PARAMETERS: curve of first compound; second compound 1 µM
// reported IC50 per item
MEASURE NAME: IC50 (µM)

1) Cn1ncc(Cl)c1-c1cc(C(=O)NC(CN)Cc2cccc(F)c2)sc1Cl (stereo not given) + CC(Nc1ncnc2nc[nH]c12)c1cc2cccc(Cl)c2c(=O)n1-c1ccccc1    5.17
2) CC1(C)CCC(CN2CCN(c3ccc(C(=O)NS(=O)(=O)c4ccc(NCC5CCOCC5)c([N+](=O)[O-])c4)c(Oc4cnc5[nH]ccc5c4)c3)CC2)=C(c2ccc(Cl)cc2)C1 + CC(Nc1ccc2c(c1)OCCn1cc(N3C(=O)OCC3C(F)F)nc1-2)C(N)=O    9.12
3) CC(C)n1nc(-c2ccc3oc(N)nc3c2)c2c(N)ncnc21 + Cc1nc(NC(=O)N2CCCC2C(N)=O)sc1-c1ccnc(C(C)(C)C(F)(F)F)c1    0.0644

* * *

- System: 624824-186-R-J3-PDC multicell spheroids, viability
- ASSAY SUMMARY: Anticancer human tumor 624824-186-R-J3-PDC cell line growth inhibition [PI3K];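 further: spheroids exposed to agents for seven days before luminescence read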;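 on viability, T/C: luminescent signal used as a stand-in for spheroid viability; percent viability relative to DMSO vehicle control wells taken as 100%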
- RUN PARAMETERS: second compound 10 µM; first compound 3.16 µM; stronger effect = lower value
// reported viability, T/C per item
MEASURE NAME: viability, T/C (%)

1) C#Cc1c(F)ccc2cc(O)cc(-c3ncc4c(N5CC6CCC(C5)N6)nc(OCC56CCCN5CC(F)C6)nc4c3F)c12 (stereo not given) + CC(Nc1ncnc2nc[nH]c12)c1cc2cccc(Cl)c2c(=O)n1-c1ccccc1    98.3
2) CNC(=O)c1ccc(N2C(=S)N(c3ccc(C#N)c(C(F)(F)F)c3)C(=O)C2(C)C)cc1F + CC(Nc1ncnc2nc[nH]c12)c1cc2cccc(Cl)c2c(=O)n1-c1ccccc1    93.2
3) C=CC(=O)N1CCN(c2nc(=O)n(-c3c(C)ccnc3C(C)C)c3nc(-c4c(O)cccc4F)c(F)cc23)C(C)C1 (stereo not given) + Cc1nc(NC(=O)N2CCCC2C(N)=O)sc1-c1ccnc(C(C)(C)C(F)(F)F)c1    69.8
4) C#Cc1c(F)ccc2cc(O)cc(-c3ncc4c(N5CC6CCC(C5)N6)nc(OCC56CCCN5CC(F)C6)nc4c3F)c12 (stereo not given) + Cc1nc(NC(=O)N2CCCC2C(N)=O)sc1-c1ccnc(C(C)(C)C(F)(F)F)c1    58.8
5) CC1(C)CCC(CN2CCN(c3ccc(C(=O)NS(=O)(=O)c4ccc(NCC5CCOCC5)c([N+](=O)[O-])c4)c(Oc4cnc5[nH]ccc5c4)c3)CC2)=C(c2ccc(Cl)cc2)C1 + Cc1nc(NC(=O)N2CCCC2C(N)=O)sc1-c1ccnc(C(C)(C)C(F)(F)F)c1    63.7

* * *

- System: 624824-186-R-J3-PDC multicell spheroids, viability
- ASSAY SUMMARY: Anticancer human tumor 624824-186-R-J3-PDC cell line growth inhibition [PI3K];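 further: spheroids exposed to agents for seven days before luminescence read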;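 on viability, T/C: luminescent signal used as a stand-in for spheroid viability; percent viability relative to DMSO vehicle control wells taken as 100%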
- RUN PARAMETERS: second compound 0.1 µM; first compound 0.00316 µM; stronger effect = lower value
MEASURE NAME: viability, T/C (%)

1. CC(C)n1nc(-c2ccc3oc(N)nc3c2)c2c(N)ncnc21 + CC(Nc1ccc2c(c1)OCCn1cc(N3C(=O)OCC3C(F)F)nc1-2)C(N)=O    101
2. CC(=O)c1c(C)c2cnc(Nc3ccc(N4CCNCC4)cn3)nc2n(C2CCCC2)c1=O + COc1c(OCCCN2CCOCC2)ccc2c3n(c(=NC(=O)c4cnc(N)nc4)nc12)CCN3    74.4
3. CC(=O)c1c(C)c2cnc(Nc3ccc(N4CCNCC4)cn3)nc2n(C2CCCC2)c1=O + Cc1nc(NC(=O)N2CCCC2C(N)=O)sc1-c1ccnc(C(C)(C)C(F)(F)F)c1    113
4. CC(C)n1nc(-c2ccc3oc(N)nc3c2)c2c(N)ncnc21 + COc1c(OCCCN2CCOCC2)ccc2c3n(c(=NC(=O)c4cnc(N)nc4)nc12)CCN3    80.2
5. Cn1ncnc1[C@H]1c2n[nH]c(=O)c3cc(F)cc(c23)N[C@@H]1c1ccc(F)cc1 + CC(Nc1ncnc2nc[nH]c12)c1cc2cccc(Cl)c2c(=O)n1-c1ccccc1    107

* * *

- Tested on: 624824-186-R-J3-PDC multicell spheroids, viability
- ASSAY SUMMARY: Anticancer human tumor 624824-186-R-J3-PDC cell line growth inhibition [PI3K];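 further: spheroids exposed to agents for seven days before luminescence read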;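 on viability, T/C: luminescent signal used as a stand-in for spheroid viability; percent viability relative to DMSO vehicle control wells taken as 100%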
- RUN PARAMETERS: second compound 0.1 µM; first compound 0.00316 µM; stronger effect = lower value
// reported viability, T/C per item
MEASURE NAME: viability, T/C (%)

1. CCN1CCN(Cc2ccc(Nc3ncc(F)c(-c4cc(F)c5nc(C)n(C(C)C)c5c4)n3)nc2)CC1 + Cc1nc(NC(=O)N2CCCC2C(N)=O)sc1-c1ccnc(C(C)(C)C(F)(F)F)c1    106
2. CCN1CCN(Cc2ccc(Nc3ncc(F)c(-c4cc(F)c5nc(C)n(C(C)C)c5c4)n3)nc2)CC1 + COc1c(OCCCN2CCOCC2)ccc2c3n(c(=NC(=O)c4cnc(N)nc4)nc12)CCN3    81
3. CC(C)n1nc(-c2ccc3oc(N)nc3c2)c2c(N)ncnc21 + Cc1nc(NC(=O)N2CCCC2C(N)=O)sc1-c1ccnc(C(C)(C)C(F)(F)F)c1    101
4. Cn1ncnc1[C@H]1c2n[nH]c(=O)c3cc(F)cc(c23)N[C@@H]1c1ccc(F)cc1 + COc1c(OCCCN2CCOCC2)ccc2c3n(c(=NC(=O)c4cnc(N)nc4)nc12)CCN3    83.1
5. CCN1CCN(Cc2ccc(Nc3ncc(F)c(-c4cc(F)c5nc(C)n(C(C)C)c5c4)n3)nc2)CC1 + CC(Nc1ccc2c(c1)OCCn1cc(N3C(=O)OCC3C(F)F)nc1-2)C(N)=O    94.6
6. CC(=O)c1c(C)c2cnc(Nc3ccc(N4CCNCC4)cn3)nc2n(C2CCCC2)c1=O + CC(Nc1ccc2c(c1)OCCn1cc(N3C(=O)OCC3C(F)F)nc1-2)C(N)=O    95.7
7. CC(=O)c1c(C)c2cnc(Nc3ccc(N4CCNCC4)cn3)nc2n(C2CCCC2)c1=O + CC(Nc1ncnc2nc[nH]c12)c1cc2cccc(Cl)c2c(=O)n1-c1ccccc1    106
8. Cn1ncnc1[C@H]1c2n[nH]c(=O)c3cc(F)cc(c23)N[C@@H]1c1ccc(F)cc1 + CC(Nc1ccc2c(c1)OCCn1cc(N3C(=O)OCC3C(F)F)nc1-2)C(N)=O    100
9. CC(C)n1nc(-c2ccc3oc(N)nc3c2)c2c(N)ncnc21 + CC(Nc1ncnc2nc[nH]c12)c1cc2cccc(Cl)c2c(=O)n1-c1ccccc1    116
10. Cn1ncnc1[C@H]1c2n[nH]c(=O)c3cc(F)cc(c23)N[C@@H]1c1ccc(F)cc1 + Cc1nc(NC(=O)N2CCCC2C(N)=O)sc1-c1ccnc(C(C)(C)C(F)(F)F)c1    111
11. CCN1CCN(Cc2ccc(Nc3ncc(F)c(-c4cc(F)c5nc(C)n(C(C)C)c5c4)n3)nc2)CC1 + CC(Nc1ncnc2nc[nH]c12)c1cc2cccc(Cl)c2c(=O)n1-c1ccccc1    103

* * *

- System: 624824-186-R-J3-PDC multicell spheroids, viability
- ASSAY SUMMARY: Anticancer human tumor 624824-186-R-J3-PDC cell line growth inhibition [PI3K];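 further: spheroids exposed to agents for seven days before luminescence read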;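 on viability, T/C: luminescent signal used as a stand-in for spheroid viability; percent viability relative to DMSO vehicle control wells taken as 100%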
- RUN PARAMETERS: second compound 3.16 µM; first compound 0.1 µM; stronger effect = lower value
The label is 1 (yes) for viability, T/C below 90% and 0 (no) for viability, T/C equal to or exceeding 90%.

1. Cn1ncnc1[C@H]1c2n[nH]c(=O)c3cc(F)cc(c23)N[C@@H]1c1ccc(F)cc1 + CC(Nc1ncnc2nc[nH]c12)c1cc2cccc(Cl)c2c(=O)n1-c1ccccc1    0 (no)
2. CC(Cn1ccc(-c2ccc(C#N)c(Cl)c2)n1)NC(=O)c1cc(C(C)O)[nH]n1 (stereo not given) + CC(Nc1ncnc2nc[nH]c12)c1cc2cccc(Cl)c2c(=O)n1-c1ccccc1    0 (no)
3. C#Cc1c(F)ccc2cc(O)cc(-c3ncc4c(N5CC6CCC(C5)N6)nc(OCC56CCCN5CC(F)C6)nc4c3F)c12 (stereo not given) + CC(Nc1ncnc2nc[nH]c12)c1cc2cccc(Cl)c2c(=O)n1-c1ccccc1    0 (no)
4. C=CC(=O)N1CCN(c2nc(=O)n(-c3c(C)ccnc3C(C)C)c3nc(-c4c(O)cccc4F)c(F)cc23)C(C)C1 (stereo not given) + Cc1nc(NC(=O)N2CCCC2C(N)=O)sc1-c1ccnc(C(C)(C)C(F)(F)F)c1    0 (no)
5. CC(=O)c1c(C)c2cnc(Nc3ccc(N4CCNCC4)cn3)nc2n(C2CCCC2)c1=O + CC(Nc1ncnc2nc[nH]c12)c1cc2cccc(Cl)c2c(=O)n1-c1ccccc1    0 (no)
6. CC(C)n1nc(-c2ccc3oc(N)nc3c2)c2c(N)ncnc21 + CC(Nc1ncnc2nc[nH]c12)c1cc2cccc(Cl)c2c(=O)n1-c1ccccc1    1 (yes)
7. C[C@@H](NC(=O)c1ncnc(N)c1Cl)c1ncc(C(=O)Nc2cc(C(F)(F)F)c(Cl)cn2)s1 + CC(Nc1ncnc2nc[nH]c12)c1cc2cccc(Cl)c2c(=O)n1-c1ccccc1    0 (no)
8. CNC(=O)c1ccc(N2C(=S)N(c3ccc(C#N)c(C(F)(F)F)c3)C(=O)C2(C)C)cc1F + CC(Nc1ncnc2nc[nH]c12)c1cc2cccc(Cl)c2c(=O)n1-c1ccccc1    0 (no)
9. Cn1ncc(Cl)c1-c1cc(C(=O)NC(CN)Cc2cccc(F)c2)sc1Cl (stereo not given) + CC(Nc1ncnc2nc[nH]c12)c1cc2cccc(Cl)c2c(=O)n1-c1ccccc1    0 (no)
10. CC(C)NCC(C(=O)N1CCN(c2ncnc3c2C(C)CC3O)CC1)c1ccc(Cl)cc1 (stereo not given) + Cc1nc(NC(=O)N2CCCC2C(N)=O)sc1-c1ccnc(C(C)(C)C(F)(F)F)c1    1 (yes)
11. CCN1CCN(Cc2ccc(Nc3ncc(F)c(-c4cc(F)c5nc(C)n(C(C)C)c5c4)n3)nc2)CC1 + Cc1nc(NC(=O)N2CCCC2C(N)=O)sc1-c1ccnc(C(C)(C)C(F)(F)F)c1    1 (yes)
12. C=CC(=O)N1CCN(c2nc(=O)n(-c3c(C)ccnc3C(C)C)c3nc(-c4c(O)cccc4F)c(F)cc23)C(C)C1 (stereo not given) + CC(Nc1ncnc2nc[nH]c12)c1cc2cccc(Cl)c2c(=O)n1-c1ccccc1    0 (no)
13. CC1(C)CCC(CN2CCN(c3ccc(C(=O)NS(=O)(=O)c4ccc(NCC5CCOCC5)c([N+](=O)[O-])c4)c(Oc4cnc5[nH]ccc5c4)c3)CC2)=C(c2ccc(Cl)cc2)C1 + CC(Nc1ncnc2nc[nH]c12)c1cc2cccc(Cl)c2c(=O)n1-c1ccccc1    0 (no)
14. CC1(C)CCC(Nc2ncc(C(F)(F)F)c(-c3c[nH]c4c(P(C)(C)=O)c(C#N)ccc34)n2)CN1 (stereo not given) + CC(Nc1ncnc2nc[nH]c12)c1cc2cccc(Cl)c2c(=O)n1-c1ccccc1    1 (yes)
15. CCCS(=O)(=O)Nc1ccc(F)c(C(=O)c2c[nH]c3ncc(-c4ccc(Cl)cc4)cc23)c1F + Cc1nc(NC(=O)N2CCCC2C(N)=O)sc1-c1ccnc(C(C)(C)C(F)(F)F)c1    1 (yes)
16. C[C@@H](NC(=O)c1ncnc(N)c1Cl)c1ncc(C(=O)Nc2cc(C(F)(F)F)c(Cl)cn2)s1 + Cc1nc(NC(=O)N2CCCC2C(N)=O)sc1-c1ccnc(C(C)(C)C(F)(F)F)c1    1 (yes)
